- Protocol description: protein stability index of a GFP-peptide fusion (yeast GPS) (PSI 1-4); higher = more stable; sorted into four equal gates, so the index is relative within each strain
- Experimental parameters: doa10∆

| Sequence text | protein stability index |
| --- | --- |
| GESEKSSDVDMDDEEWR [RPC53] | 3.7 |
| GKLAKPRQLHNTHWGLV [RPB2] | 2.85 |
| EITQQEKGLNELSIRDV [SMC4] | 1.75 |
| PSSLNSDKIPYVAPTKK [SRB4] | 2.24 |
| MTTQQEEQRSDTKNSKS [ISW2] | 3.26 |
| SAENRDEKDYLTNQQPK [CSE2] | 2.76 |
| IGIDEGSDEAYVKDARK [RPC40] | 3.48 |
| PKEVDGLEVGPVVQVGI [IRR1] | 3.38 |

---

# protein stability index annotations
- Protocol description: protein stability index of a GFP-peptide fusion (yeast GPS) (PSI 1-4); higher = more stable; sorted into four equal gates, so the index is relative within each strain
- Experimental parameters: san1∆

| Sequence text | protein stability index |
| --- | --- |
| QELKLTCVAKKGIAKEH [RPB3] | 2.92 |
| GDAAPAEEAAAEEEEES [RPP0] | 3.29 |
| LNTLFNPVTLNEDSKAF [NUT1] | 1.65 |
| FVWLSSEENIGSGLLKL [SWI1] | 3.28 |
| MHKQLAYILAAQKTSFE [RPN1] | 2.29 |
| DLNNAVQKRDEVKEQLG [SMC4] | 3.15 |
| TYVLNTWTNSKIFIKDP [YML103C/NUP188] | 2.3 |
| HIRKASSKKSKRLDKVG [LRP1] | 2.97 |
| ETNAKPFSFSSATSTTE [YLR335W/NUP2] | 2.35 |
| EKLKVNMEKEKDRIIDE [YIL149C/MLP2] | 3.39 |
| VNSIALFVGTDRQLHEI [RPN14] | 2.25 |
| TLQLYMVHREFLKLANG [RGR1] | 2.07 |
| SAGNDKMVKAWNLNQFQ [ASC1] | 2.15 |
| SKKAEKTGTKPAAVFAE [RPL4B] | 2.44 |

---

# protein stability index annotations
- Protocol description: protein stability index of a GFP-peptide fusion (yeast GPS) (PSI 1-4); higher = more stable; sorted into four equal gates, so the index is relative within each strain
- Experimental parameters: san1∆
Property: protein stability index

| Sequence text | Property | Recorded value |
| --- | --- | --- |
| LSEDVNLETLVTTKDDL [RPT2] | protein stability index | 2.57 |
| ADLPGSYNLEYIESKFC [YMR129W/POM152] | protein stability index | 3.13 |
| DTRITPSKVSKIDSHVV [PRE6] | protein stability index | 2.46 |
| VPTGGASSAAAGAAGAA [RPP2B] | protein stability index | 3.17 |
| NDLIVNYEDLATTQAAS [BRN1] | protein stability index | 3.34 |
| IVPLTEGDIQVLKSYGA [RPT1] | protein stability index | 2.77 |
| YWQFNGVIALGQFVTLG [RMP1] | protein stability index | 2.11 |
| NIIQAKRDAKAAGSYYV [RPL7A] | protein stability index | 3.11 |
| KRNGDEVYTLVDSQGLP [ARP7] | protein stability index | 2.98 |
| SFTSATERHIQVGDGLE [PRE7] | protein stability index | 3.35 |
| VDEELGPSIYKTDPAGY [SCL1] | protein stability index | 3.29 |
| IERYPSKVTKKHGAKKV [RPL27B] | protein stability index | 3.43 |
| IKENFFERIMILDPQVT [YJL039C/NUP192] | protein stability index | 1.29 |
| SFLKEGDLLNAEVQSLF [RRP4] | protein stability index | 3.04 |

---

- Protocol description: protein stability index of a GFP-peptide fusion (yeast GPS) (PSI 1-4); higher = more stable; sorted into four equal gates, so the index is relative within each strain
- Experimental parameters: ubr1∆
Property: protein stability index

| Sequence text | Property | Recorded value |
| --- | --- | --- |
| MAGLSFDNYQRNNFLAE [PUP1] | protein stability index | 3.39 |
| VTNIRRIIQDNISPRLV [RRP46] | protein stability index | 2.23 |
| SDEEENNNNKSINKNNK [SSN2] | protein stability index | 3.07 |
| VARFLHFNGIRRLDALV [ITC1] | protein stability index | 3.35 |
| HSVQETNKISPKDFSPN [SSN2] | protein stability index | 3.11 |
| PLAPAPINLPPQIAQLP [SNF5] | protein stability index | 1.97 |
| KNMPVIYNNIVSNIEGI [RGR1] | protein stability index | 2.56 |
| PSSLNSDKIPYVAPTKK [SRB4] | protein stability index | 2.09 |
| QVSINSNKILVYESEME [YIL149C/MLP2] | protein stability index | 2.92 |
| ADVTSNIDSSAQFTFGK [YOR098C/NUP1] | protein stability index | 3.13 |
| TTLTIMRILPRETDPLV [RPT4] | protein stability index | 2.52 |
| GSIFTHETTFMTAMRLM [YML031W/NDC1] | protein stability index | 2.64 |
| KLKLLRMERIKDHLLLE [RPT2] | protein stability index | 1.86 |
| KDTTGPKAISNFLIKLS [YCS4] | protein stability index | 1.52 |

---

# protein stability index annotations
- Protocol description: protein stability index of a GFP-peptide fusion (yeast GPS) (PSI 1-4); higher = more stable; sorted into four equal gates, so the index is relative within each strain
- Experimental parameters: doa10∆

| Sequence text | protein stability index |
| --- | --- |
| SPQLTAIIGLKSGTSHD [SNF12] | 1.52 |
| ERFTKSKTLSLIQSYSL [FAS1] | 2.29 |
| DDPSKVRLLCRSDGMGN [YLR335W/NUP2] | 2.94 |
| QKVNAVDSTFQKVSENF [SMC3] | 3.29 |
| YDKKKRVVVPQALRVLR [RPL16B] | 1.82 |
| YSKSFEQFKMVSMITDH [POP1] | 2.3 |
| SKLDIYTQQQALEYIGA [RET1] | 1.94 |

---

- Protocol description: protein stability index of a GFP-peptide fusion (yeast GPS) (PSI 1-4); higher = more stable; sorted into four equal gates, so the index is relative within each strain
- Experimental parameters: san1∆
# protein stability index annotations

| Sequence text | protein stability index |
| --- | --- |
| RNFSLAIIDKNTGLTFK [PRE4] | 3.14 |
| SYELRNTTTYKSRPDRP [SNF5] | 3.1 |
| EEEVTDQLEDLREHFKN [QCR6] | 3.26 |
| KLIAAAEDGSRSTKDMI [SNF6] | 3.44 |
| LKIIHDTFRWVGKKSAP [RPO31] | 2.35 |
| IGDTIADGPTMREITET [RPO21] | 3.52 |
| KEKKELQMRLKESEISH [YIL149C/MLP2] | 3.04 |

---

- Protocol description: protein stability index of a GFP-peptide fusion (yeast GPS) (PSI 1-4); higher = more stable; sorted into four equal gates, so the index is relative within each strain
- Experimental parameters: san1∆
Classify by protein stability index. Ranges: low-valued (below 2), mid-valued (2 to below 3), high-valued (3 or more)

| Sequence text | Label |
| --- | --- |
| SGCENITDKTIESIVNL [GRR1] | low-valued |
| EDALYLGKRSILAAAHR [PRE2] | high-valued |
| NKAQAKMDKRAKNSDSA [RPL8A] | high-valued |
| SLSIEENIPVALCKNRK [POP1] | mid-valued |
| PLARNYIKSMDLISKKT [RPR2] | mid-valued |
| LIKERQEMERKLEKKRN [ESC2] | high-valued |
| LENATWTMRIEGRLLDN [SNF12] | mid-valued |
| EDTPANDSSATRSWRPP [RPB8] | mid-valued |
| SMSEEFKYVSVRYEEKR [BRR2] | high-valued |
| VQSQVDSSSVSEDSAVF [FAS1] | high-valued |
| GKTNIALLTVLKALSHH [BRR2] | mid-valued |
| SLQSCSVAVHFQYVIDE [SMC4] | low-valued |
| TFGIRRNEKIAVHVTVR [RPL11A] | mid-valued |
| ELPLLSPERFATLGIDP [RPT1] | high-valued |
| SPVTGDNSPSEDFMDIP [SNF2] | mid-valued |
| NQIQRQQQQQFRHHVQI [SNF5] | low-valued |
| DVQARRQFVSNVRSVIR [RPP1] | low-valued |
| FIPHGLKRRQVIEQCYL [SRB8] | mid-valued |
| NKASLAQYEVLANYLTS [QCR2] | mid-valued |
| NIVKLCFVHRYKDVSDL [IRR1] | mid-valued |
| LVRDSKPSKPFNVDDVL [MED8] | mid-valued |
| RAQVLSLGDGTNYYLTT [CSL4] | mid-valued |
| NIFKAEMDSVSKSMKFS [CSN9] | mid-valued |
| LVAAFIASLERELILAK [YCG1] | low-valued |
| VYNNSKDEYLAQLDGRI [NSL1] | high-valued |
| IQLNGGSISEKVDWARE [RPL3] | mid-valued |
| GFINQKNLKPQEQLKNV [YIL149C/MLP2] | mid-valued |
